Just for reference, patent US20260000078A1 is where these values come from.

Test system: Escherichia coli ATCC 8739
protocolSummary: Minimal Kill Concentration (MKC) assay, 96 well plate
Assay type: cell-based
experimentalParameters: solvent water; 20-minute contact time
Each entry below carries its recorded MKC (ppm) E. coli.

molecule	MKC (ppm) E. coli
CCCCCC(CC(=O)O)O[C@@H]1O[C@@H](C)[C@H](O)[C@@H](O)[C@H]1O (stereo partly shown)	>1225 ppm
CCCCCCCCCC(O)CC(=O)O (racemic) [DL-β-Hydroxylauric acid]	>865 ppm
CCCCCCCCCC(CC(=O)O)O[C@@H]1O[C@@H](C)[C@H](O)[C@@H](O)[C@H]1O (stereo partly shown)	>1450 ppm
CCCCCC(O)CC(=O)O (racemic) [(±)-3-Hydroxyoctanoic acid]	>641 ppm
CCCCCCCCC[C@@H](O)CC(=O)O [(3R)-3-hydroxydodecanoic acid]	>865 ppm
CCCCCCCC(CC(=O)O)O[C@@H]1O[C@@H](C)[C@H](O)[C@@H](O)[C@H]1O (stereo partly shown)	>1338 ppm
CCCCCCCC(O)CC(=O)O (racemic) [(±)-3-Hydroxydecanoic acid]	753 ppm
